Every entry's value here was drawn from patent US20230131339A1.

System tested: CXC chemokine receptor type 4 (CXCR4) (human, UniProt P61073 1-352)
Sequence (P61073 whole entry): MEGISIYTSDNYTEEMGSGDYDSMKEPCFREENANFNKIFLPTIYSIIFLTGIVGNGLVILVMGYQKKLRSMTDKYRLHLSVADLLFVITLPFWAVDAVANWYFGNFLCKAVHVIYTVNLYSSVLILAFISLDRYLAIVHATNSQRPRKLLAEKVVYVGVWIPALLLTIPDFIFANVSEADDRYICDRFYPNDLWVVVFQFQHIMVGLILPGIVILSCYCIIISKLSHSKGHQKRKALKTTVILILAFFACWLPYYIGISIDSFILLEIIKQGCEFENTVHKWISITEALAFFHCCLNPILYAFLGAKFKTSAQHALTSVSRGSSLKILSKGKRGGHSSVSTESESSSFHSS
Test description: cell-based or functional assay
Where no end group is shown, it is not given here.
What IC50, HIV inhibition assay was measured for each of the following?

For orientation, consider the following solved cases.
Binder: ILRWSRK(Ac)LPCVS [JM#200]
IC50, HIV inhibition assay: 50 to 150 nM

Binder: MMRWSRKMPCVS [JM#34]
IC50, HIV inhibition assay: 50 to 150 nM

Binder: IFRWSHKVPCVS [JM#11]
IC50, HIV inhibition assay: > 150 nM

Now for a further binder.
get_value(item= IVRWSHKVPCVS [JM#4] , readout=IC50, HIV inhibition assay) returns > 150 nM
